# ASSAY_NAME: small-molecule binders of probe aNOTCH3, primary screen, biochemical, small-molecule microarray, 635/667 nm fluorescence (AID 1120);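 also: probe is a biotin-tagged antibody raised against NOTCH3 rather than NOTCH3 protein; score merges spot fluorescence near 667 nm with spot signal to noise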
# CONDITIONS_USED: higher = more signal
composite z-score of -0.2 or higher: true. Under -0.2: false.

Qu. Would you say [N-]=[N+]=NCc1ccccc1[C@@H]1OC(c2ccc(OCCCO)cc2)=N[C@]1(Cc1ccccc1N=[N+]=[N-])C(=O)NCCN1CCOCC1 shows composite z-score at minimum -0.2?
Ans. true

Qu. State whether the measured composite z-score reaches -0.2, counting equality as reaching it, for COCCCNC(=O)[C@@]1(c2ccc([N+](=O)[O-])cc2)CC(=O)N(C(C)C)[C@@H]1c1ccc(CO)cc1
Ans. false

Qu. Quick check: does CC(C)OC(=O)CC(=O)CC(O)c1ccc([N+](=O)[O-])cc1 (stereo not drawn) have composite z-score greater than or equal to -0.2?
Ans. true

Qu. Check the entry O=C(NCCN1CCOCC1)[C@@H]1c2ccccc2C(=O)N(Cc2ccccc2)[C@H]1c1ccc(CO)cc1 : does composite z-score equal or exceed -0.2?
Ans. false

Qu. State whether the measured composite z-score reaches -0.2, counting equality as reaching it, for CC(CO)N1C(=O)[C@@H]2[C@H]3C(=O)OCC=C[C@H]3OC23C=CCN(c2ccc(Cl)cc2)C(=O)[C@@H]13 (stereo partly drawn)
Ans. false

Qu. Please check the record [N-]=[N+]=Nc1ccccc1[C@@H]1OC(c2ccc(OCCCO)cc2)=N[C@]1(Cc1ccccc1)C(=O)NCc1ccccc1 and state if its composite z-score is at or above -0.2.
Ans. true

Qu. Can COc1cc(NN2C(C(O)C3CCCCC3)C=CC3C(=O)N(C)C(=O)C32)cc(OC)c1OC (stereo not drawn) be said to have composite z-score at or above -0.2?
Ans. true

====

# ASSAY_NAME: small-molecule microarray binders of probe aLefty2, primary screen, biochemical, biotinylated probe, 635/667 nm fluorescence (AID 1094);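 also: score merges spot fluorescence near 667 nm with spot signal-to-noise ratio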
# CONDITIONS_USED: higher = more signal
READOUT_KIND: composite z-score
Lab note: record the figure alone, no unit after it.

Qu. What value of composite z-score has been reported for the following molecule? [N-]=[N+]=NCc1ccccc1C[C@]1(C(=O)N2CCOCC2)COC(c2ccc(OCCCO)cc2)=N1
Ans. 0.273

Qu. Given the entry O=C1OCC=C[C@H]2OC34C=CCN(c5ccc6ccccc6c5)C(=O)[C@H]3N(CCCCCO)C(=O)[C@@H]4[C@@H]12 (some centres undefined) , report its measured composite z-score.
Ans. 0.306

Qu. Reported composite z-score for C=C(CCCC)/C(=C/C[C@H](OC(C)=O)c1ccc(OCCO)cc1)c1cc(C(=O)OC)ccc1OC : what is it?
Ans. -0.0238

Qu. Sample C=C(/C(=C/C[C@H](OC(=O)c1ccncc1)c1cccc(OCCO)c1)c1cnc2ccccc2c1)C(C)C — what was its composite z-score?
Ans. -0.115

====

# ASSAY_NAME: binders of probe aFGF2 on microarray, primary screen, stem cell growth factor project, biochemical, small-molecule microarray, fluorescence 635/667 (AID 1067);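 also: measures binding of biotinylated aFGF2 protein to printed compounds on slides; z-score merges feature fluorescence and signal-to-noise across triplicate slides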
# CONDITIONS_USED: higher = more signal
READOUT_KIND: composite z-score
Kindly provide the number alone.

Qu. Could you share which composite z-score value was measured for Cc1cccc([C@H]2C[C@H]3C(I)=C[C@@H]2C(=O)[C@]32CO2)c1 ?
Ans. -0.128

Qu. Consider the compound C[C@]1(C(=O)NCC(F)(F)F)c2ccccc2C(=O)N(Cc2ccccc2)[C@H]1c1ccc(CO)cc1 and give its measured composite z-score.
Ans. -0.167

Qu. Which composite z-score reading was recorded for the compound CCCCCCCCCCC(O)C1C=CC2C(=O)N(c3ccccc3)C(=O)C2N1Nc1ccccc1F (stereo not given) ?
Ans. -0.0647

Qu. # get_value(readout='composite z-score', item= Cc1ccc(N2C(=O)c3ccccc3[C@](C)(C(=O)NCc3ccccc3)[C@@H]2c2ccc(CO)cc2)nc1 )
Ans. 0.0898

Qu. If you can, please state the reported composite z-score value of CC1(C)C(=O)C(c2ccccc2)=C2CN3C(=O)N(CCc4ccccc4)C(=O)C3(Cc3ccc(C(F)(F)F)cc3)C=C21 (stereo not given) .
Ans. 0.0814

Qu. Sample CCCCCN1CC=CC23O[C@@H]4/C=C\CCC(C)OC(=O)C4[C@H]2C(=O)N(CCCCCCO)[C@@H]3C1=O (stereo not given in full) — what was its composite z-score?
Ans. -0.129

Qu. Query (compound): COC(=O)[C@@]1(Cc2ccc(OC)cc2)[C@H]2c3cc(C(=O)N4CCCC4)n(Cc4ccc(OC(F)(F)F)cc4)c3C[C@H]2CN1C(=O)c1ccccc1 ; field requested: composite z-score
Ans. 0.225

Qu. Look up composite z-score for this compound: [N-]=[N+]=NCc1ccccc1[C@H]1OC(c2ccc(OCCCO)cc2)=N[C@@]1(Cc1ccccc1)C(=O)NCCN1CCOCC1
Ans. -0.0627

Qu. Fill in the blank: the reported composite z-score of COc1cc(CO)cc(I)c1O[C@H]1C=C(C(=O)NCCO)C[C@@H](NCC2CCCCC2)[C@@H]1O is ____.
Ans. -0.0506

Qu. // composite z-score lookup, key: COc1ccc(C(=O)Nc2cccc(CN3C(=O)[C@@]4(O[C@@H](CC(=O)N(CCO)Cc5ccccc5)[C@H]([Si](C)(C)c5ccc(OC)cc5)[C@H]4C)c4ccccc43)c2)cc1
Ans. -0.119

Qu. Given the compound CCCCC=C[C@@H](NC(=O)c1ccccc1)c1ccccc1 , what is its reported composite z-score?
Ans. 0.0011

Qu. // query composite z-score value for entry COCCOC(=O)N1C(=O)[C@@]2(c3ccccc31)[C@H](c1ccc(OCCO)cc1)N1[C@H](c3ccccc3)[C@H](c3ccccc3)OC(=O)[C@H]1[C@@H]2C(=O)N1CCCCCCC1
Ans. 1.05

Qu. Data request, read-out composite z-score, for C[C@@]12COC[C@]13C=C(Br)[C@H](C2)[C@@]1(CO1)C3=O
Ans. -0.04

Qu. What value of composite z-score has been recorded for this entry: CN(C)C(=O)[C@]1(CCS(=O)(=O)c2ccccc2)N=C(c2ccc(OCCCO)cc2)O[C@@H]1c1ccccc1
Ans. 0.0759

Qu. Entry C=C(C(=O)CC[C@H](OC(=O)c1ccccc1-c1ccccc1C(=O)O)c1ccccc1OCCO)C(C)C : reported composite z-score = ?
Ans. -0.163

Qu. Any idea what its composite z-score is? The compound is C=C[C@@H](OC)[C@H](OC(=O)Nc1ccc(OC)cc1)c1ccc(OC)c(O)c1
Ans. -0.087

Qu. So what's the measured composite z-score for this one? O=c1cccc(-c2ccc(F)cc2)o1
Ans. -0.0455

Qu. Give the measured composite z-score of C=CCC(OC(C)=O)[C@@H]1[C@@H](N(Cc2cccc3ccccc23)C(=O)Cc2ccc(F)cc2)c2cc(OCCCO)ccc2N1C(=O)c1ccc(-c2ccccc2)cc1 (stereo not given in full) .
Ans. -0.0427

Qu. State the recorded composite z-score for this entry: CN(C)C(=O)[C@@]1(Cc2ccccc2)COC(c2ccc(OCCCO)cc2)=N1
Ans. 0.0412

Qu. Value lookup for composite z-score; key = COCC1C2CC[C@H]3C(OCc4ccc(OC)cc4)OC[C@]4(C)[C@H]3C2=C(CN4C(=O)OC(C)(C)C)[C@H](C)C1COC (stereo not given in full)
Ans. 0.142

Qu. Record request: composite z-score value, item O=C1OCCC/C=C\[C@H]2OC34C=CCN(c5ccc6ccccc6c5)C(=O)[C@H]3N(CCCO)C(=O)[C@@H]4C12 (stereo not given in full)
Ans. -0.101

Qu. Form field: reported composite z-score of COc1ccc([Si](C)(C)[C@H]2[C@H](CCO)O[C@@]3(C(=O)N(Cc4ccc(N5C(=O)c6ccccc6Oc6ccccc65)cc4)c4ccccc43)[C@@H]2C)cc1
Ans. -0.081

Qu. Endpoint output: composite z-score of NC(=O)NCC#Cc1ccc2c(c1)[C@]1(C(=O)N2)[C@H](C(=O)N2CCN(c3ncccn3)CC2)[C@H]2C(=O)O[C@H](c3ccccc3)[C@H](c3ccccc3)N2[C@@H]1c1ccc(OCCO)cc1 . Value?
Ans. -0.0222

Qu. Dear colleague, I am looking for the recorded composite z-score of the following compound: CCOC(=O)C[C@H]1[C@H](OC(=O)c2ccc(-c3ccccc3)cc2)[C@@H](NC(=O)Cc2ccc(OC)cc2)c2cc(OCCCO)ccc2N1C(=O)Cc1ccc(OC)cc1
Ans. -0.101

Qu. Requested field: composite z-score. Item: CN(C)CCCCCCNC(=O)[C@@H]1C[C@@H]2C(=O)N[C@@H](CCCCN)C(=O)N2[C@@H]1c1ccc(O)cc1
Ans. 0.939

Qu. Bench note: what composite z-score did Cc1ccc(S[C@]2(C(=O)NC(C)C)CC(=O)N(C(C)C)[C@@H]2c2ccc(CO)cc2I)cc1 show?
Ans. -0.0272

Qu. Any idea what its composite z-score is? The compound is COC(=O)[C@@]1(Cc2ccc(F)cc2)[C@H]2c3cc(C(=O)N4CCCC4)n(C)c3C[C@H]2CN1C(=O)c1ccccc1
Ans. 0.404

Qu. What does the data say about its composite z-score? Entry: C=CC1c2cc(O)c(OC)cc2CCN1Cc1ccc([N+](=O)[O-])o1 (stereo not given)
Ans. -0.0156

Qu. Given the entry CC(C)=CCCC(C)=CC(O)C1C=CC2C(=O)N(c3ccccc3)C(=O)C2N1Nc1ccccc1F (stereo not given) , report its measured composite z-score.
Ans. -0.138

Qu. Reported composite z-score for COCCOC(=O)N1C(=O)[C@@]2(c3ccccc31)[C@H](c1ccccc1OCCO)N1[C@H](c3ccccc3)[C@H](c3ccccc3)OC(=O)[C@H]1[C@@H]2C(=O)N1CCCCCCC1 : what is it?
Ans. 0.959
